- TEST_SYSTEM: Adenosine receptor A3 (Homo sapiens) (UniProt P0DMS8)
- Sequence (P0DMS8 whole entry): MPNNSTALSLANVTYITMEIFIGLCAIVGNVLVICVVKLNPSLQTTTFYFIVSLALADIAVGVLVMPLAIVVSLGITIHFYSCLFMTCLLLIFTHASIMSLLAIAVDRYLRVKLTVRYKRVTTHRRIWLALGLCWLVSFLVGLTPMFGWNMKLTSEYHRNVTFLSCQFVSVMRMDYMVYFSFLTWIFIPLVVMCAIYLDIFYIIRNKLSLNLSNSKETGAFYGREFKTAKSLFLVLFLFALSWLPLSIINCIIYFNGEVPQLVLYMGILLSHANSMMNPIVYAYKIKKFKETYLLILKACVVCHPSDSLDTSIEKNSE
- PROCEDURE_DETAILS: Binding affinity towards adenosine A3 receptor by measuring its ability to displace [125I]AB-MECA binding to membranes prepared from HEK293 cells
- Format: cell membranes
Ki for assorted compounds
MEASUREMENT_NAME: Ki (µM)

INSERT INTO measurements (compound, test_system, value_reported) VALUES
  ('CCOC(=O)c1c(-c2ccccc2)nc(C)c(C(=O)SCCOC)c1CC', 'Adenosine receptor A3 (Homo sapiens) (UniProt P0DMS8)', 0.165),
  ('CCOC(=O)c1c(C)nc(-c2ccccc2)c(C(=O)OCC)c1C=O', 'Adenosine receptor A3 (Homo sapiens) (UniProt P0DMS8)', 1.98),
  ('CCOC(=O)c1c(-c2ccccc2)nc(CCOC)c(C(=O)SCC)c1CC', 'Adenosine receptor A3 (Homo sapiens) (UniProt P0DMS8)', 0.0168),
  ('CCOC(=O)c1c(C2CCCC2)nc(CC)c(C(=O)SCC)c1CC', 'Adenosine receptor A3 (Homo sapiens) (UniProt P0DMS8)', 3.38),
  ('CCOC(=O)C1=C(c2ccccc2)N=C(C)/C(=C(/O)SCCOC)C1CC (stereo not drawn)', 'Adenosine receptor A3 (Homo sapiens) (UniProt P0DMS8)', 4.58),
  ('CCCC1=NC(c2ccccc2)=C(C(=O)OCC)C(CC)/C1=C(\O)SCC (stereo not drawn)', 'Adenosine receptor A3 (Homo sapiens) (UniProt P0DMS8)', 2.09),
  ('CCCc1c(C(=O)SCC)c(C)nc(-c2ccccc2)c1C(=O)OCC', 'Adenosine receptor A3 (Homo sapiens) (UniProt P0DMS8)', 0.194),
  ('CCCSC(=O)c1c(CC)nc(-c2ccccc2)c(C(=O)OCC)c1CC', 'Adenosine receptor A3 (Homo sapiens) (UniProt P0DMS8)', 0.0159);
